Tested on: sandwich-cultured human hepatocytes
Assay: Effect of ERAs on endogenous glycocholic acid (GCA) distribution in sandwich-cultured human hepatocytes
Assay type: cell-based
Details: 100 µM, 24 h; mean ± standard error, n=3 human livers
Overview of recorded GCA Medium Concentration (% Control) for various compounds
Numbers only; they are read as % Control.

Some solved cases for reference:
COc1ccccc1Oc1c(NS(=O)(=O)c2ccc(C(C)(C)C)cc2)nc(-c2ncccn2)nc1OCCO [bosentan]: 77.1
COC(c1ccccc1)(c1ccccc1)[C@H](Oc1nc(C)cc(C)n1)C(=O)O [ambrisentan]: 95.7
CCCNS(=O)(=O)Nc1ncnc(OCCOc2ncc(Br)cn2)c1-c1ccc(Br)cc1 [macitentan]: 52.6

Proceeding to the next compound to report its GCA Medium Concentration (% Control).
Note to self: GCA Medium Concentration (% Control) recorded for Cc1cc2c(cc1CC(=O)c1sccc1S(=O)(=O)Nc1onc(C)c1Cl)OCO2 [sitaxsentan] was 75.0

* * *

Tested on: sandwich-cultured human hepatocytes
Experiment: Effect of ERAs on endogenous glycochenodeoxycholic acid (GCDCA) distribution in sandwich-cultured human hepatocytes
Format: cell-based
Conditions: 10 µM, 24 h; mean ± standard error, n=3 human livers
readout: GCDCA Cellular Accumulation (% Control)
// note: answer is a bare numeric in % Control

CCCNS(=O)(=O)Nc1ncnc(OCCOc2ncc(Br)cn2)c1-c1ccc(Br)cc1 [macitentan]: 52.1
COc1ccccc1Oc1c(NS(=O)(=O)c2ccc(C(C)(C)C)cc2)nc(-c2ncccn2)nc1OCCO [bosentan]: 54.8
Cc1cc2c(cc1CC(=O)c1sccc1S(=O)(=O)Nc1onc(C)c1Cl)OCO2 [sitaxsentan]: 79.4

The record that follows has no GCDCA Cellular Accumulation (% Control) shown yet.
Lab note: molecule COC(c1ccccc1)(c1ccccc1)[C@H](Oc1nc(C)cc(C)n1)C(=O)O [ambrisentan] tested on sandwich-cultured human hepatocytes; recorded GCDCA Cellular Accumulation (% Control) was 83.6

* * *

Quick reference for GCDCA Cellular Accumulation (% Control) among some compounds
Test system: sandwich-cultured human hepatocytes
Assay: Effect of ERAs on endogenous glycochenodeoxycholic acid (GCDCA) distribution in sandwich-cultured human hepatocytes
Assay type: cell-based
Details: 100 µM, 24 h; mean ± standard error, n=3 human livers
# number only, unit % Control dropped from output

Cc1cc2c(cc1CC(=O)c1sccc1S(=O)(=O)Nc1onc(C)c1Cl)OCO2: 14.5
CCCNS(=O)(=O)Nc1ncnc(OCCOc2ncc(Br)cn2)c1-c1ccc(Br)cc1: 11.4
COc1ccccc1Oc1c(NS(=O)(=O)c2ccc(C(C)(C)C)cc2)nc(-c2ncccn2)nc1OCCO: 30.3

Here is the next item to consider.
Per the record, `COC(c1ccccc1)(c1ccccc1)[C@H](Oc1nc(C)cc(C)n1)C(=O)O` has GCDCA Cellular Accumulation (% Control) of 27.6

* * *

Test system: sandwich-cultured human hepatocytes
Experiment: Effect of ERAs on endogenous glycocholic acid (GCA) distribution in sandwich-cultured human hepatocytes
Format: cell-based
Settings: 10 µM, 24 h; mean ± standard error, n=3 human livers
The reader will find reported GCA Cellular Accumulation (% Control) values listed item by item below.
Provide only the numeric value, understood in % Control.

Some molecules with recorded GCA Cellular Accumulation (% Control):
Cc1cc2c(cc1CC(=O)c1sccc1S(=O)(=O)Nc1onc(C)c1Cl)OCO2 [sitaxsentan]: 69.8
CCCNS(=O)(=O)Nc1ncnc(OCCOc2ncc(Br)cn2)c1-c1ccc(Br)cc1 [macitentan]: 62.7
COc1ccccc1Oc1c(NS(=O)(=O)c2ccc(C(C)(C)C)cc2)nc(-c2ncccn2)nc1OCCO [bosentan]: 55.1

As a next step, examine the molecule that follows.
For reference, reported GCA Cellular Accumulation (% Control) for COC(c1ccccc1)(c1ccccc1)[C@H](Oc1nc(C)cc(C)n1)C(=O)O [ambrisentan] stands at 88.2

* * *

Molecular target: OATP1B1 (Homo sapiens)
Construct: host or cells: CHO
Sequence (Q9Y6L6 whole entry): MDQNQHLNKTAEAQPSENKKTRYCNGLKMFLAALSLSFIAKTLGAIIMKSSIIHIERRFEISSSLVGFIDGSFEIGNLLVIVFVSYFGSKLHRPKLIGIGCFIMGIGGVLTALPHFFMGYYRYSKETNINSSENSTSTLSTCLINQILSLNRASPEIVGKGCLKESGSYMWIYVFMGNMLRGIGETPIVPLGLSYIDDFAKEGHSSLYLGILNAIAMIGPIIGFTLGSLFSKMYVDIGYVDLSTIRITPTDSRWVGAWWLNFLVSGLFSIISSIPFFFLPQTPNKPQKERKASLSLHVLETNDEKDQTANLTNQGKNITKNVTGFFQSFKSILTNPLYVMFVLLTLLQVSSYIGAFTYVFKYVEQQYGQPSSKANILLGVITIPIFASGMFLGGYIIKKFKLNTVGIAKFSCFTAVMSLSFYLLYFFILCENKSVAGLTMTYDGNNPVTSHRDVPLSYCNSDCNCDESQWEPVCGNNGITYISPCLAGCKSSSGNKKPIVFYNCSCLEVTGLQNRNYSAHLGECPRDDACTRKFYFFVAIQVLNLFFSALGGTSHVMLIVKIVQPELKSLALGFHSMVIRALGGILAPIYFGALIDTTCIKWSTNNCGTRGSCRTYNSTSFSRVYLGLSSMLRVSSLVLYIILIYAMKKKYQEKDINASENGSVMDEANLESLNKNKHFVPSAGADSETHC
Experiment: OATP1B1 inhibition, Fluo 3 uptake in transfected CHO cells
Format: cell-based
readout: IC50 (µM)
Value expressed in µM; do not type the unit.

What the record says about `COC(c1ccccc1)(c1ccccc1)[C@H](Oc1nc(C)cc(C)n1)C(=O)O` : IC50 is 47

* * *

Target: BCRP (Homo sapiens, UniProt Q9UNQ0)
Construct: host or cells: MDCKII
Sequence (Q9UNQ0 1-655): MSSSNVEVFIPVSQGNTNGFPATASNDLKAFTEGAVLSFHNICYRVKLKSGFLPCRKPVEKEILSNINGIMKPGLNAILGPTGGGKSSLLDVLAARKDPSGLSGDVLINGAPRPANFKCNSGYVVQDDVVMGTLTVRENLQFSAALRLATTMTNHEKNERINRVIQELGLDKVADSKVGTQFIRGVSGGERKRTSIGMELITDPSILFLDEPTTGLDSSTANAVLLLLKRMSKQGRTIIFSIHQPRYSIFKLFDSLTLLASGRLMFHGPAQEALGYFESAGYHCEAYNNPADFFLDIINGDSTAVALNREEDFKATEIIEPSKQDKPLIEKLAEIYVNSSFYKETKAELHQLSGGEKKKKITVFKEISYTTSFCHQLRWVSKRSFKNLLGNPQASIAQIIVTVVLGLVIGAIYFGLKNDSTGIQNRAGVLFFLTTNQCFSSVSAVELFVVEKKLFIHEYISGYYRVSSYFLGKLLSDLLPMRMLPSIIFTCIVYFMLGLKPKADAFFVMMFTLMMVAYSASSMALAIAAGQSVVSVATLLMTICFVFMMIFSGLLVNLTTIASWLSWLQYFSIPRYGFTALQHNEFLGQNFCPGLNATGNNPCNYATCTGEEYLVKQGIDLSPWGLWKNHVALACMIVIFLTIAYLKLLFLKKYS
Assay: BCRP inhibition in MDCKII-ABCG2 cells
Type: cell-based
Conditions: mean ± SD of 3 independent studies in duplicate, tested 0.14–100 µM
Reported IC50 values are given for each entry in this list.

Some solved entries appear below for comparison.
COC(c1ccccc1)(c1ccccc1)[C@H](Oc1nc(C)cc(C)n1)C(=O)O: > 100 µM
COc1ccccc1Oc1c(NS(=O)(=O)c2ccc(C(C)(C)C)cc2)nc(-c2ncccn2)nc1OCCO: > 100 µM

Next, consider the following molecule.
Observed IC50, BCRP (Homo sapiens, UniProt Q9UNQ0), `CCCNS(=O)(=O)Nc1ncnc(OCCOc2ncc(Br)cn2)c1-c1ccc(Br)cc1` : 75 µM

* * *

The following compounds are shown together with reported GCA Cellular Accumulation (% Control) values.
System: sandwich-cultured human hepatocytes
Assay: Effect of ERAs on endogenous glycocholic acid (GCA) distribution in sandwich-cultured human hepatocytes
Assay type: cell-based
Details: 100 µM, 24 h; mean ± standard error, n=3 human livers
A complete answer gives the number followed by the unit.

CCCNS(=O)(=O)Nc1ncnc(OCCOc2ncc(Br)cn2)c1-c1ccc(Br)cc1: 38.1 ± 13.6 % Control
Cc1cc2c(cc1CC(=O)c1sccc1S(=O)(=O)Nc1onc(C)c1Cl)OCO2: 18.6 ± 6.9 % Control
COc1ccccc1Oc1c(NS(=O)(=O)c2ccc(C(C)(C)C)cc2)nc(-c2ncccn2)nc1OCCO: 25.6 ± 8.4 % Control

So, `COC(c1ccccc1)(c1ccccc1)[C@H](Oc1nc(C)cc(C)n1)C(=O)O` ? Its GCA Cellular Accumulation (% Control) was 48.8 ± 10.8 % Control

* * *

Reported IC50 values for the following compounds.
Target: Pgp (Homo sapiens, UniProt P08183)
Construct: host or cells: MDCKII
Sequence (P08183 whole entry): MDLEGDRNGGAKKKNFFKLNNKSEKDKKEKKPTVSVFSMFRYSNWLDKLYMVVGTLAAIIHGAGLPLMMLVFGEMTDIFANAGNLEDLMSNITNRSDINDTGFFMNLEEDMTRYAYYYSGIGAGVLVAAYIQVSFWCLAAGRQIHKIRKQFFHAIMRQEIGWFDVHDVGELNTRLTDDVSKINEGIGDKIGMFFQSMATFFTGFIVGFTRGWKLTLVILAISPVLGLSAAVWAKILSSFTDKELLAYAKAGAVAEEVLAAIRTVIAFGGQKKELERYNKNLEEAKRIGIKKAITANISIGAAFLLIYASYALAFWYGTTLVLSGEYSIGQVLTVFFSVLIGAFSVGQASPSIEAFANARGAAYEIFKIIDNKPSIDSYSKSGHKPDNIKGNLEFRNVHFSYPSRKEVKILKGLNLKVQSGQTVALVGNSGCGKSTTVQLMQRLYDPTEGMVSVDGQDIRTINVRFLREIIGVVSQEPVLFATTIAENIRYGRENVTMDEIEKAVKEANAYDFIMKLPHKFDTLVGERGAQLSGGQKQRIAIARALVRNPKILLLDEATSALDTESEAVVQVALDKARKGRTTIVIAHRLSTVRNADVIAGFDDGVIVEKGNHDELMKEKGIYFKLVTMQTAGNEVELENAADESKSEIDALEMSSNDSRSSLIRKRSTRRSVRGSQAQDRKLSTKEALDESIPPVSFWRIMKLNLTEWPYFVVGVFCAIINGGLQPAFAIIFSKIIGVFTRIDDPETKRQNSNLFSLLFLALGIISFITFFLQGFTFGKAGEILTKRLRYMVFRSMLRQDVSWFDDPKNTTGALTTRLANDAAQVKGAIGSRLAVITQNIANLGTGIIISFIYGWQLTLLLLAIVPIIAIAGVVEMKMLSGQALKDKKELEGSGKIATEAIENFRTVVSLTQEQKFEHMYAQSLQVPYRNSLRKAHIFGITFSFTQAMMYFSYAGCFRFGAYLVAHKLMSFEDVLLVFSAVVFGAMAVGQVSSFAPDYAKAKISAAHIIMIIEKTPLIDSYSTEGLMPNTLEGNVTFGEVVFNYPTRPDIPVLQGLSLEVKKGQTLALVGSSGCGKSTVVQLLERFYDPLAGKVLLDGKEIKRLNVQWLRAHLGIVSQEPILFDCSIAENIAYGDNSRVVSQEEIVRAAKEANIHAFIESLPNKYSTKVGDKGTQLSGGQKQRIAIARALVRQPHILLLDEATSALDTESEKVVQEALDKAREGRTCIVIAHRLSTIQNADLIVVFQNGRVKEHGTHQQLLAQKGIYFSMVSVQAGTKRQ
Experiment: Pgp inhibition, Calcein AM in MDCKII cells
Type: cell-based
Details: mean ± SD of 3 independent studies in duplicate, tested 0.14–100 µM

COC(c1ccccc1)(c1ccccc1)[C@H](Oc1nc(C)cc(C)n1)C(=O)O [ambrisentan]: > 100 µM
CCCNS(=O)(=O)Nc1ncnc(OCCOc2ncc(Br)cn2)c1-c1ccc(Br)cc1 [macitentan]: 64 µM

Now examine the next entry.
IC50 for Pgp (Homo sapiens, UniProt P08183) with input COc1ccccc1Oc1c(NS(=O)(=O)c2ccc(C(C)(C)C)cc2)nc(-c2ncccn2)nc1OCCO [bosentan] equals > 100 µM

* * *

Target: MRP2 (Homo sapiens, UniProt Q92887)
Construct: purchased Solvo Biotechnology, Budaors, Hungary; host or cells: Sf9 insect cells (membrane vesicles)
Sequence (Q92887 whole entry): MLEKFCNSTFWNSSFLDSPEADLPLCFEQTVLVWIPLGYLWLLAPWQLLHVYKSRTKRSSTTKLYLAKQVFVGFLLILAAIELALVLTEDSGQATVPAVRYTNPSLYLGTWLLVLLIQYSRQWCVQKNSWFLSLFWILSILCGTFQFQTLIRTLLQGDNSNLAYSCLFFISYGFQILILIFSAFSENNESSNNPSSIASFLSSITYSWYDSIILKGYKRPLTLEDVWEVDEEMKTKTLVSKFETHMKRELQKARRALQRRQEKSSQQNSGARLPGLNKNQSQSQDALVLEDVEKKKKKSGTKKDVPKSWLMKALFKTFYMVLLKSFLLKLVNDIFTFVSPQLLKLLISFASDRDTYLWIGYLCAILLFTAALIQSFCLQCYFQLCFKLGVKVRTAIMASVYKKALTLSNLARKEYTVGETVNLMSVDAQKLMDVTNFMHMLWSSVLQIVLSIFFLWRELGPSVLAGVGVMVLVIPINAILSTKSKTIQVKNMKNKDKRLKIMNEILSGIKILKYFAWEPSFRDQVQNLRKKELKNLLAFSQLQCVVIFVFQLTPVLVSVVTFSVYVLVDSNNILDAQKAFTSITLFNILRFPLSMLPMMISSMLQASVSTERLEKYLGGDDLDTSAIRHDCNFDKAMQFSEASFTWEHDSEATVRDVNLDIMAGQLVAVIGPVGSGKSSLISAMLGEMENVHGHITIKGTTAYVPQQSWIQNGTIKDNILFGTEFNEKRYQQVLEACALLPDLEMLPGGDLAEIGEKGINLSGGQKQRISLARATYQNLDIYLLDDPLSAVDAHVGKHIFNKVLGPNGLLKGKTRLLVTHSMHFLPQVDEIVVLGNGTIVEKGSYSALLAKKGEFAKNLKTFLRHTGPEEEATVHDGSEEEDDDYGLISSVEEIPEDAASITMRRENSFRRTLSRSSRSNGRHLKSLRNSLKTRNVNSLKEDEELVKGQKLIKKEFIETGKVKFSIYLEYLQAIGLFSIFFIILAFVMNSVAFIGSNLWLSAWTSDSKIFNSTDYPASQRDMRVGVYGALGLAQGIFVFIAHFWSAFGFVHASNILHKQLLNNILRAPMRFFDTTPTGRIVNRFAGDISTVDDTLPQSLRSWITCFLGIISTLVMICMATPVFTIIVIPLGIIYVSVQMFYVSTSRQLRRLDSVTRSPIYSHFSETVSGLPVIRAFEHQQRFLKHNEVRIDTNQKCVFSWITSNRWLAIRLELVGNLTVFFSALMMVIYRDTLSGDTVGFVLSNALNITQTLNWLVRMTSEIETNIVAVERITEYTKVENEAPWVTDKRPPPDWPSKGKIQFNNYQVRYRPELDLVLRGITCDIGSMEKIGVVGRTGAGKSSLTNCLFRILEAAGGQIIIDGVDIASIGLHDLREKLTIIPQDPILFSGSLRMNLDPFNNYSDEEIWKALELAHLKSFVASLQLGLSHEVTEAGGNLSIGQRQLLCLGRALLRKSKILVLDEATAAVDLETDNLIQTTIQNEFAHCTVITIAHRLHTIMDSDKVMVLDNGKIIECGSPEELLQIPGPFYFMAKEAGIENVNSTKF
Experiment: MRP2 inhibition, estradiol-17-beta-glucuronide transport in Sf9 membrane vesicles
Type: biochemical
Conditions: E217βG 0.2 µM, single experiment in duplicate, tested 0.14–100 µM
pIC50: −log10 of the molar value.
Catalogue of pIC50 readings, one per entry.

These recorded examples may help you get a feel for the data.
CCCNS(=O)(=O)Nc1ncnc(OCCOc2ncc(Br)cn2)c1-c1ccc(Br)cc1: < 4.00
COC(c1ccccc1)(c1ccccc1)[C@H](Oc1nc(C)cc(C)n1)C(=O)O: ~4.12

Measured pIC50 of `COc1ccccc1Oc1c(NS(=O)(=O)c2ccc(C(C)(C)C)cc2)nc(-c2ncccn2)nc1OCCO` : < 4.00
